Reference source: the supplement of paper PMC12783771

B1: library; numbered along this chain (parent)
chain: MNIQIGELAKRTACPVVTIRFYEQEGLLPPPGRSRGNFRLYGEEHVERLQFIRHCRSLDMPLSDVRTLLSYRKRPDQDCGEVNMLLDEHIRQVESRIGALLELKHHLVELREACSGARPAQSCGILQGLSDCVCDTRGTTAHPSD

# Variants of: B1
# test_description: sfGFP reporter fluorescence (15 h) (µM FITC); higher = stronger transcriptional activation
# condition: library round: Round 0; ligand: 30 µM Zn
# key: entry, value: sfGFP reporter fluorescence
Could you keep your reply to the number by itself?

# count of solved cases: 3
chain_sequence	sfGFP reporter fluorescence
MNIQIGELAKRTACPVVTIRFYEQEGLLPPPGRSRGNFRLYGEEHVERLQFIRHCRSLDMPLSDVRTLLSYRKRPDQDCGEVNMLLDEHKRQVESRIGALLELKHHLVELREACSGARPAQSCGILQGLSDCVCDTRGTTAHPSD [I90K]	0.85
MNIQIGELAKRTACPVVTIRFYEQEGLLPPPGRSRGNFRLYGEEHVERLQFIRHCRSLDMPLSDVRTLLSYRKRPDQDCGEVNMLLDEHYRQVESRIGALLELKHHLVELREACSGARPAQSCGILQGLSDCVCDTRGTTAHPSD [I90Y]	0.986
MNIQIGELAKRTACPVVTIRFYEQEGLLPPPGRSRGNFRLYGEEHVERLQFIRHCRSLDMPLSDVRTLLSYRKRPDQDCGEVNMLLDEHIRQVESRIGALLELKHHLVELKEACSGARPAQSCGILQGLSDCVCDTRGTTAHPSD [R111K]	0.149

Given the entry MNIQIGELAKRTACPVVTIRFYEQEGLLPPPGRSRGNFRLYGEEHVERLQFIRHCRSLDMPLSDVRTLLSYRKRPDQDCGEVNMLLDEHIRQVESRIGALLELKHHLRELREACSGARPAQSCGILQGLSDCVCDTRGTTAHPSD [V108R] , report its measured sfGFP reporter fluorescence. 0.875

Given the entry MNIQIGELAKRTACPVVTIRFYEQEGLLPPPGRSRGNFRLYGEEHVERLQFIRHCRSLDMPLSDVRTLLSYRKRPDQDCGEVNMLLDEHIRQVESRIGALLELAHHLVELREACSGARPAQSCGILQGLSDCVCDTRGTTAHPSD [K104A] , report its measured sfGFP reporter fluorescence. 0.591

Given the entry MNIQIGELAKRTACPVVTIRFYEQEGLLPPPGRSRGNFRLYGEEHVERLQFIRHCRSLDMPLSDVRTLLSYRKRPDQDCGEVNMLLDEHIRQVESRIGALLELKHHLVELREACSGARPAQSCGILQELSDCVCDTRGTTAHPSD [G128E] , report its measured sfGFP reporter fluorescence. 0.535

Given the entry MNIQIGELAKRTACPVVTIRFYEQEGLPPPPGRSRGNFRLYGEEHVERLQFIRHCRSLDMPLSDVRTLLSYRKRPDQDCGEVNMLLDEHIRQVESRIGALLELKHHLVELREACSGARPAQSCGILQGLSDCVCDTRGTTAHPSD [L28P] , report its measured sfGFP reporter fluorescence. 0.0619

Given the entry MNIQIGELAKRTACPVVTIRFYEQEGLLPPPGASRGNFRLYGEEHVERLQFIRHCRSLDMPLSDVRTLLSYRKRPDQDCGEVNMLLDEHIRQVESRIGALLELKHHLVELREACSGARPAQSCGILQGLSDCVCDTRGTTAHPSD [R33A] , report its measured sfGFP reporter fluorescence. 0.0625

Given the entry MNIQIGELAKRTACPVVTIRFYEQEGLLPPPGRSRGNFRLYGEEHVERLQFIRHCRSLDMPLSDVRTLLSYRKRPDQDCGEVNMLADEHIRQVESRIGALLELKHHLVELREACSGARPAQSCGILQGLSDCVCDTRGTTAHPSD [L86A] , report its measured sfGFP reporter fluorescence. 0.0782

Given the entry MNIQIGELAKRTACPVVTIRFYEQEGILPPPGRSRGNFRLYGEEHVERLQFIRHCRSLDMPLSDVRTLLSYRKRPDQDCGEVNMLLDEHIRQVESRIGALLELKHHLVELREACSGARPAQSCGILQGLSDCVCDTRGTTAHPSD [L27I] , report its measured sfGFP reporter fluorescence. 0.555

Given the entry MNIQIGELAKRTACPVVTIRFYEQEGLLPPPGRSRGNFRLYGEEHNERLQFIRHCRSLDMPLSDVRTLLSYRKRPDQDCGEVNMLLDEHIRQVESRIGALLELKHHLVELREACSGARPAQSCGILQGLSDCVCDTRGTTAHPSD [V46N] , report its measured sfGFP reporter fluorescence. 0.108

Given the entry MNIQIGELAKRTACPVVTIRFYEQEGLLPPPGRSRGNFRLYGEEHVERLQFIRHCRSLDMPLSDVRTLLSYRKRPDQDCGEVNMLLDEHIRQVESRIGALLELKHHLVELREACSGARPAQSWGILQGLSDCVCDTRGTTAHPSD [C123W] , report its measured sfGFP reporter fluorescence. 0.0546

Given the entry MNIQIGELAKRTACPVVTIRFYEQEGLLPPPGRSRGNFRLYGEEHVERLQFIRHCRSLDMPLSDVRTLLSYRKRPDQDCGEVKMLLDEHIRQVESRIGALLELKHHLVELREACSGARPAQSCGILQGLSDCVCDTRGTTAHPSD [N83K] , report its measured sfGFP reporter fluorescence. 0.0753

Given the entry MNIQIGELAKRTACPVVTIRFYEQEGLLPPPGRSRGNFRLYGEEHVERLQFIRHCRSLDMPLSDVRTLLSYRKRPDQDCGEVNMLLDEHIRQVESRIGALLELKHHLVELREACSGARPAQSCGIWQGLSDCVCDTRGTTAHPSD [L126W] , report its measured sfGFP reporter fluorescence. 0.0612
